- target.of.assay: T1, Wild type CD117 purified protein (human, UniProt P10721 26-520, limits assumed)
- T1 construct: Protein used in BLI/kinetics and cryo-EM; also called wt CD117; Wt CD117
- assay.name: binding kinetics, FIGS. 45A-45K
# key: entry, value: kon
# do not omit the unit; it follows the number

See these solved cases before continuing.
# binder, value.measured
records = [
    ("ABTx052 variant VL_S93G (antibody, human IgG1, V domains shown) VH: QVQLVQSGAAVKKPGESLKISCKGSGYRFTSYWIGWVRQMPGKGLEWMGIIYPGDSDTRYSPSFQGQVTISAGKSISTAYLQWSSLKASDTAMYYCARHGRGYNGYEGAFDIWGQGTMVTVSS VL: AIQLTQSPSSLSASVGDRVTITCRASQGISSALAWYQQKPGKAPKLLIYDASSLESGVPSRFSGSGSGTDFTLTISSLQPEDFATYYCQQFNGYPLTFGGGTKVEIK", "671000 M⁻¹ s⁻¹"),
    ("ABTx052 variant VL_Y94S (antibody, human IgG1, V domains shown) VH: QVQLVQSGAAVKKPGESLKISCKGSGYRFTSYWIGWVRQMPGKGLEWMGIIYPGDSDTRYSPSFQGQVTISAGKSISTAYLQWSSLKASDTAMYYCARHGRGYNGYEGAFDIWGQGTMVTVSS VL: AIQLTQSPSSLSASVGDRVTITCRASQGISSALAWYQQKPGKAPKLLIYDASSLESGVPSRFSGSGSGTDFTLTISSLQPEDFATYYCQQFNSSPLTFGGGTKVEIK", "643000 M⁻¹ s⁻¹"),
]

Query: Fill in kon for record ABTx052 variant VH_G105A (antibody, human IgG1, V domains shown) VH: QVQLVQSGAAVKKPGESLKISCKGSGYRFTSYWIGWVRQMPGKGLEWMGIIYPGDSDTRYSPSFQGQVTISAGKSISTAYLQWSSLKASDTAMYYCARHGRGYNAYEGAFDIWGQGTMVTVSS VL: AIQLTQSPSSLSASVGDRVTITCRASQGISSALAWYQQKPGKAPKLLIYDASSLESGVPSRFSGSGSGTDFTLTISSLQPEDFATYYCQQFNSYPLTFGGGTKVEIKR
Result: 601000 M⁻¹ s⁻¹
